Data provenance is ChEMBL document CHEMBL3832761.

# MIC90 values compiled below
system: Mycobacterium tuberculosis; test: AntiMycobacterium tuberculosis activity Non-Replicating form: Average MIC90 (uM); format: functional
reported.metric: MIC90 (µM)

- molecule: "COc1cccc(-c2nc3c(N4CCCC4)cccc3n2CC2CCCN2)n1 (stereo unspecified)"
  assayed.target: "Mycobacterium tuberculosis"
  relational.operator: "="
  endpoint.result: 80.6
- molecule: "O=C(NCc1ccco1)N1CCN(Cc2ccc(Cl)s2)CC1"
  assayed.target: "Mycobacterium tuberculosis"
  relational.operator: "="
  endpoint.result: 90.2
- molecule: "Nc1ncnc2c1ncn2[C@@H]1O[C@H](COS(=O)(=O)NC(=O)c2ccccc2O)[C@@H](O)[C@H]1O"
  assayed.target: "Mycobacterium tuberculosis"
  relational.operator: ">"
  endpoint.result: 100
- molecule: "CCC(Sc1nc2ccccc2o1)C(=O)Nc1nnc(C)s1 (stereo unspecified)"
  assayed.target: "Mycobacterium tuberculosis"
  relational.operator: "="
  endpoint.result: 4.49
- molecule: "CCOC(=O)c1c(NC(=O)c2c(F)c(F)c(F)c(F)c2F)sc(C(N)=O)c1C"
  assayed.target: "Mycobacterium tuberculosis"
  relational.operator: "="
  endpoint.result: 0.23
- molecule: "O=C(c1cc2ccccc2o1)N1CCN(Cc2ccc3c(c2)OCO3)CC1"
  assayed.target: "Mycobacterium tuberculosis"
  relational.operator: "="
  endpoint.result: 16.6
- molecule: "Nc1nc2cc(-c3cncc(Oc4ccc(F)cc4)c3)ccc2[nH]1"
  assayed.target: "Mycobacterium tuberculosis"
  relational.operator: "="
  endpoint.result: 41.2
- molecule: "O=C(NCc1cc(Cl)cc(Cl)c1)c1c(C(F)(F)F)nc2ccccn12"
  assayed.target: "Mycobacterium tuberculosis"
  relational.operator: "="
  endpoint.result: 2.93
- molecule: "CC1=NN(c2nc3ccccc3s2)C(=O)C1Cc1cccc2ccccc12 (stereo unspecified)"
  assayed.target: "Mycobacterium tuberculosis"
  relational.operator: ">"
  endpoint.result: 100
- molecule: "Nc1c2c(nc3sc4c(c13)CCCC4)CCCC2"
  assayed.target: "Mycobacterium tuberculosis"
  relational.operator: "="
  endpoint.result: 94.6
- molecule: "Cc1cccc(-c2nc(Nc3ccncn3)c3sccc3n2)n1"
  assayed.target: "Mycobacterium tuberculosis"
  relational.operator: "="
  endpoint.result: 0.09

----------
tested on: HepG2; assay: Cytotoxicity data HepG2 CC20 (uM); assay type: functional
reported.metric: CC20 (µM)

- molecule: "CC1=Nc2ccc(Cl)cc2C(c2ccccc2)N1CCNC(=O)CN(C)C (configuration not stated)"
  relational.operator: "="
  endpoint.result: 16.4
- molecule: "COc1ccc(-c2cnc3ccc(N4CCCC4)nn23)cc1OC"
  relational.operator: "="
  endpoint.result: 4.95
- molecule: "O=C(Nc1cnc2ccccc2c1)c1cccc(-n2cnnn2)c1"
  relational.operator: ">"
  endpoint.result: 80
- molecule: "Cc1ccc(S(=O)(=O)N2CCN(C(=O)c3cc(-c4ccccc4)n[nH]3)CC2)cc1"
  relational.operator: ">"
  endpoint.result: 80
- molecule: "COCC(C)NC(=O)CSc1ncnc2sc(-c3ccccc3)cc12 (configuration not stated)"
  relational.operator: ">"
  endpoint.result: 80
- molecule: "O=C(Nc1cccc(-c2ccc(NCCCN3CCCC3)nc2)c1)c1ccccc1"
  relational.operator: "="
  endpoint.result: 17.2
- molecule: "COC(=O)C1=C(C)NC(C)=C(C(=O)OC(C)C)C1c1cccc2nonc12 (configuration not stated)"
  relational.operator: "="
  endpoint.result: 66
- molecule: "c1ccc(-c2[nH]c3ccccc3c2C(c2ccccn2)N2CCCC2)cc1 (configuration not stated)"
  relational.operator: "="
  endpoint.result: 1
- molecule: "Cc1nc(-c2ccccn2)nc(N(C)CCc2ccccc2)c1Cl"
  relational.operator: "="
  endpoint.result: 11.3
- molecule: "Nc1ccc2ncnc(Nc3ccc(OCc4cccc(F)c4)c(Cl)c3)c2c1"
  relational.operator: "="
  endpoint.result: 9.72
- molecule: "CN(C)c1cc(NC(=O)Nc2ccccc2)c2ccccc2n1"
  relational.operator: "="
  endpoint.result: 6.86
- molecule: "O=C(C(Cc1c[nH]c2ccccc12)NS(=O)(=O)c1ccc(Cl)cc1)N1CCCCC1 (configuration not stated)"
  relational.operator: "="
  endpoint.result: 21.9
- molecule: "CC(C(=O)N1CCCC1)N1CCN(S(=O)(=O)c2ccc(C(C)(C)C)cc2)CC1 (configuration not stated)"
  relational.operator: ">"
  endpoint.result: 80
- molecule: "O=C(NC1CC1)c1ccc(N2CCC(Cc3ccccc3)CC2)nc1"
  relational.operator: ">"
  endpoint.result: 80
- molecule: "COc1cccc(-c2cc3c(Nc4cccnc4)nccc3[nH]2)c1"
  relational.operator: "="
  endpoint.result: 2.29
- molecule: "COc1cc(NC(=O)Cc2nn(C)c(=O)c3ccccc23)ccc1Cl"
  relational.operator: ">"
  endpoint.result: 80
- molecule: "O=C([C@@H](c1ccc(Cl)cc1)c1cccnc1)N1CCN(c2ccc(C(F)(F)F)cc2)CC1"
  relational.operator: "="
  endpoint.result: 19
- molecule: "CC(C)NCC(=O)Nc1cccc(C(=O)Nc2cccc(C(F)(F)F)c2)c1"
  relational.operator: "="
  endpoint.result: 11.5
- molecule: "Cc1ccc(S(=O)(=O)n2cc(-c3ccnc(N)c3)c3cc(Br)cnc32)cc1"
  relational.operator: "="
  endpoint.result: 5.28
- molecule: "COc1ccc(-c2nn(C(C)C)c3ncnc(N)c23)cc1OC"
  relational.operator: "="
  endpoint.result: 1.63
- molecule: "CCc1ccccc1-n1c(C)cn2c3c(=O)n(C(C(=O)OC)C(C)C)c(=O)n(C)c3nc12 (configuration not stated)"
  relational.operator: "="
  endpoint.result: 44.3
- molecule: "CC(C)(CN)c1nc(-c2ccc(Cl)c(O)c2)c(-c2ccnc(N)n2)[nH]1"
  relational.operator: "="
  endpoint.result: 5.77
- molecule: "COc1ccc(OC)c(NCc2ccc3nc(N)nc(N)c3c2Cl)c1"
  relational.operator: "="
  endpoint.result: 3.44
- molecule: "CC(C)(C)c1cc(C(=O)N2CCN(c3nccnc3C#N)CC2)n(Cc2ccccc2)n1"
  relational.operator: "="
  endpoint.result: 22.9
- molecule: "COc1ccc(-c2cnc3ccc(NCc4ccc(S(N)(=O)=O)cc4)nn23)cn1"
  relational.operator: "="
  endpoint.result: 3.29
- molecule: "CN1CCN(S(=O)(=O)c2ccc(-c3ccc4c(Nc5ncc(Cl)cn5)ccnc4c3)cc2)CC1"
  relational.operator: "="
  endpoint.result: 8
- molecule: "CC1(C)OB(O)c2ccc(C3=NOC(c4cc(Cl)c(F)c(Cl)c4)(C(F)(F)F)C3)cc21 (configuration not stated)"
  relational.operator: "="
  endpoint.result: 15.4
- molecule: "CCc1nc2ccc(C(=O)NCc3ccc4c(c3)OCO4)cn2c1N(C)Cc1cccs1"
  relational.operator: "="
  endpoint.result: 18.6
- molecule: "CS(=O)(=O)c1cccc(-c2cnc3[nH]cc(-c4ccc(CCC(=O)O)cc4)c3c2)c1"
  relational.operator: ">"
  endpoint.result: 80
- molecule: "CC(C)(C)c1cc(C(=O)Nc2cccnc2)cc(C(=O)Nc2cccnc2)c1"
  relational.operator: "="
  endpoint.result: 17.2
- molecule: "Clc1ccc(Cl)c(CO[C@H]2CCCC[C@@H]2n2ccnc2)c1"
  relational.operator: "="
  endpoint.result: 37.1
- molecule: "Cn1ncc2c(N3CCOCC3)nc(NCCc3c[nH]c4ccccc34)nc21"
  relational.operator: "="
  endpoint.result: 4.63
- molecule: "c1ccc(Oc2ccc(-c3cc(N4CCOCC4)[nH]n3)cc2)cc1"
  relational.operator: "="
  endpoint.result: 7.47
- molecule: "N=C(N)Nc1ccc(-c2ccc(-c3ccc(NC(=N)N)cc3Cl)o2)c(Cl)c1"
  relational.operator: "="
  endpoint.result: 6.75
- molecule: "FC(F)(F)c1cc(NCCc2ccccc2)nc(-c2ccccn2)n1"
  relational.operator: ">"
  endpoint.result: 80
- molecule: "Cc1nc(-c2cccc(NCc3ccccc3)c2)[nH]c1C"
  relational.operator: "="
  endpoint.result: 27.7
- molecule: "CC1CC1C(=O)NC1CCN(CC2(c3ccccc3)CCCCC2)CC1 (configuration not stated)"
  relational.operator: ">"
  endpoint.result: 80
- molecule: "c1ccc(-c2cc(N3CCCCC3)c3ccccc3n2)nc1"
  relational.operator: "="
  endpoint.result: 22.9
- molecule: "COc1ccc(C2CC(c3cccs3)=NN2C(=O)c2ccco2)cc1OC (configuration not stated)"
  relational.operator: "="
  endpoint.result: 43.1
- molecule: "CN1CCN(c2nccc3nc(-c4ccc(F)c(F)c4)[nH]c23)CC1"
  relational.operator: "="
  endpoint.result: 10.3
- molecule: "O=C(NC1CCN(c2ccnc3ccccc23)C1)c1cccc(C(F)(F)F)c1 (configuration not stated)"
  relational.operator: "="
  endpoint.result: 5.82
- molecule: "Cc1cc(OCC(=O)Nc2ccc(C(C)C)cc2)n(C)c(=O)c1C#N"
  relational.operator: ">"
  endpoint.result: 80
